Source listed as patent EP4682145A1.

- measurementTarget: human FFAR1 (GPR40) (Homo sapiens, UniProt O14842)
- Construct: Flag; expressed in transfected cells; host or cells: HEK293T
- Sequence (O14842 whole entry): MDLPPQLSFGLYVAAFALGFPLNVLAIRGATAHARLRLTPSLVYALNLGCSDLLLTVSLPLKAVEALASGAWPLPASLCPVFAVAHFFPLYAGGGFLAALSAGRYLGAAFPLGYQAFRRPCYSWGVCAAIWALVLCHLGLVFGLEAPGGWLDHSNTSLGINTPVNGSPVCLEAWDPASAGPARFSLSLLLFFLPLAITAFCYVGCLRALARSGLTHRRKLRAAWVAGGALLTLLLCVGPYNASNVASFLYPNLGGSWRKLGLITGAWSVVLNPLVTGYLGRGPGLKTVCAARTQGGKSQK
- assayInfo: NFAT-RE-based reporter gene activity assay (Dual-Glo luciferase) for GPR40 agonistic activity in co-transfected HEK293T cells
- Format: cell-based
- assaySetup: 4-hour treatment, class symbols

compound	Efficacy (%)
COc1cccc(N2CCC(c3oc4cc([C@@H](CC(=O)O)C5CC5)ccc4c3-c3csc(C(C)C)n3)CC2)c1 [Compound 107]	††† (Efficacy (%) > 150)
COc1cccc(N2CCC(c3oc4cc([C@@H](CC(=O)O)C5CC5)ccc4c3-c3cccc(C)n3)CC2)c1 [Compound 147]	††† (Efficacy (%) > 150)

----------
- assayInfo: Pharmacokinetic evaluation in ICR mice (intravenous and gavage)
- Format: in vivo
- assaySetup: mouse, plasma, Intravenous Administration (5 mg/kg)
measuredEndpoint: half-life (h)
Report the value in h with no unit label.

Consider the molecule COc1cccc(N2CCC(c3oc4cc([C@@H](CC(=O)O)C5CC5)ccc4c3-c3cnn(C(C)(C)C)c3)CC2)c1 and give its measured half-life.
2.41

Report half-life for COc1cccc(N2CCC(c3oc4cc([C@@H](CC(=O)O)C5CC5)ccc4c3-c3cccc(C(C)(C)C)c3)CC2)c1 please.
5.02

What does the record list as half-life for COc1ccc(F)c(N2CCC(c3oc4cc(C(CC(=O)O)C5CC5)ccc4c3-c3ccc(C(C)(C)C)cc3)CC2)c1 (stereo not shown) ?
3.9

Fill in: half-life of COc1ccc(F)c(N2CCC(c3oc4cc([C@@H](CC(=O)O)C5CC5)ccc4c3-c3cccc(C(C)(C)C)c3)CC2)c1 is ___
6.7

----------
Answer each item with its documented pEC50.
- measurementTarget: human FFAR1 (GPR40) (Homo sapiens, UniProt O14842)
- Construct: Flag
- assayInfo: NFAT-RE-based reporter gene activity assay (Dual-Glo luciferase) for GPR40 agonistic activity in co-transfected HEK293T cells
- assaySetup: 4-hour treatment
pEC50: −log10 of the molar value.

Query: pEC50; subject: CC(C)(C)c1ccc(-c2c(C3CCN(c4ccc5c(c4)OCO5)CC3)oc3cc(C(CC(=O)O)C4CC4)ccc23)cc1 (stereo not drawn)
6.30 to 7.00

Param item = CC(C)(C)c1ccc(-c2c(C3CCN(c4ccc5ncoc5c4)CC3)oc3cc(C(CC(=O)O)C4CC4)ccc23)cc1 (stereo not drawn) ; retrieve measured pEC50.
6.30 to 7.00

Sample COc1cccc(N2CCC(c3oc4cc([C@@H](CC(=O)O)C5CC5)ccc4c3C(=O)Nc3cc(C)ccc3Br)CC2)c1 — what was its pEC50?
≥ 8.00

Entry COc1ccc(F)c(N2CCC(c3oc4cc(C(CC(=O)O)C5CC5)ccc4c3C(=O)NCCC(C)(C)C)CC2)c1 (stereo not drawn) : reported pEC50 = ?
6.30 to 7.00

pEC50 lookup needed for COc1ccc(F)c(N2CCC(c3oc4cc(C(CC(=O)O)C5CC5)ccc4c3-c3ccc(SC)cc3)CC2)c1 (stereo not drawn) , thanks.
6.30 to 7.00

For the compound shown here, COc1cccc(N2CCC(c3oc4cc(C(CC(=O)O)C5CC5)ccc4c3-c3noc(C(C)(C)C)n3)CC2)c1 (stereo not drawn) , give the reported pEC50.
7.00 to 8.00

If you can, please state the reported pEC50 value of COc1cccc(N2CCC(c3oc4cc(C(CC(=O)O)C5CC5)ccc4c3C(=O)Nc3ncc(C(C)(C)C)s3)CC2)c1 (stereo not drawn) .
6.30 to 7.00

Recorded pEC50 for COc1cccc(N2CCC(c3oc4cc(C(CC(=O)O)C5CC5)ccc4c3-c3nnc(C4(C)CC4)o3)CC2)c1 (stereo not drawn) , please?
6.30 to 7.00

Fill in the blank: the reported pEC50 of COc1ccc(F)c(N2CCC(c3oc4cc(C(CC(=O)O)C5CC5)ccc4c3-c3ccc(C(C)C)cc3)CC2)c1 (stereo not drawn) is ____.
6.30 to 7.00

I'd like to know its pEC50. The compound in question is COc1ccc(F)c(N2CCC(c3oc4cc(C(CC(=O)O)C5CC5)ccc4c3C(=O)Nc3ccc(C)cc3)CC2)c1 (stereo not drawn)
6.30 to 7.00

Record request: pEC50 value, item CCc1ccc(-c2c(C3CCN(c4cc(OC)ccc4F)CC3)oc3cc(C(CC(=O)O)C4CC4)ccc23)cc1 (stereo not drawn)
6.30 to 7.00

Would you mind telling me what pEC50 value was observed for CC(C)(C)c1cccc(-c2c(-c3ccccc3)oc3cc(C(CC(=O)O)C4CC4)ccc23)c1 (stereo not drawn) ?
< 6.30

Which pEC50 is reported for this compound? Cc1ccccc1NC(=O)c1c(C2CCN(c3ccc4c(c3)OCO4)CC2)oc2cc([C@@H](CC(=O)O)C3CC3)ccc12
7.00 to 8.00

Query (compound): CC(C)(C)n1cc(-c2c(C3CCN(c4ccc5c(c4)OCO5)CC3)oc3cc([C@@H](CC(=O)O)C4CC4)ccc23)cn1 ; field requested: pEC50
7.00 to 8.00

Name the reported pEC50 value associated with the compound COc1cccc(N2CCC(c3oc4cc(C(CC(=O)O)C5CC5)ccc4c3C(=O)Nc3c(F)cccc3OC)CC2)c1 (stereo not drawn)
< 6.30

# get_value(readout='pEC50', item= COc1ccc(F)c(N2CCC(c3oc4cc(C(CC(=O)O)C5CC5)ccc4c3-c3cccc(C(F)(F)F)c3)CC2)c1 (stereo not drawn) )
6.30 to 7.00

For the compound shown here, COc1cccc(N2CCC(c3oc4cc(C(CC(=O)O)C5CC5)ccc4c3C(=O)Nc3cccc(Cl)c3)CC2)c1 (stereo not drawn) , give the reported pEC50.
6.30 to 7.00

Record request: pEC50 value, item COc1ccc(F)c(N2CCC(c3oc4cc([C@@H](CC(=O)O)C5CC5)ccc4c3C(=O)Nc3cc(F)ccc3Cl)CC2)c1
≥ 8.00

What value of measured pEC50 is listed for CCCCC(C)c1c(C2CCN(c3cccc(OC)c3)CC2)oc2cc([C@@H](CC(=O)O)C3CC3)ccc12 (stereo partly drawn) ?
6.30 to 7.00

I am curious: what pEC50 value has been reported for CSc1cccc(N2CCC(c3oc4cc(C(CC(=O)O)C5CC5)ccc4c3-c3ccc(C(C)(C)C)cc3)CC2)c1 (stereo not drawn) ?
6.30 to 7.00

Tell me the measured pEC50 of COc1ccc(F)c(N2CCC(c3oc4cc(C(CC(=O)O)C5CC5)ccc4c3-c3ccc(S(=O)(=O)C(C)C)cc3)CC2)c1 (stereo not drawn) , please.
6.30 to 7.00

Any idea what pEC50 was measured for COc1cccc(N2CCC(c3oc4cc(C(CC(=O)O)C5CC5)ccc4c3-c3cc(C(C)(C)C)on3)CC2)c1 (stereo not drawn) ?
7.00 to 8.00

If you can, please state the reported pEC50 value of CCC(CC(=O)O)c1ccc2c(-c3cnn(C(C)(C)C)c3)c(C3CCN(c4cccc(OC)c4)CC3)oc2c1 (stereo not drawn) .
6.30 to 7.00

If you can, please state the reported pEC50 value of COc1ccc(F)c(N2CCC(c3oc4cc([C@@H](CC(=O)O)C5CC5)ccc4c3-c3cnn(C(C)(C)C)c3)CC2)c1 .
6.30 to 7.00

Entry under review: CNc1cccc(N2CCC(c3oc4cc(C(CC(=O)O)C5CC5)ccc4c3-c3ccc(C(C)(C)C)cc3)CC2)c1 (stereo not drawn) . Reported pEC50?
6.30 to 7.00

Recorded pEC50 for COc1cccc(N2CCC(c3oc4cc(C(CC(=O)O)C5CC5)ccc4c3-c3cnn(C(C)(C)C)c3)CC2)n1 (stereo not drawn) , please?
6.30 to 7.00

Give the measured pEC50 of COc1ccc(F)c(N2CCC(c3oc4cc([C@@H](CC(=O)O)C5CC5)ccc4c3C(=O)Nc3cc(C)ccc3Cl)CC2)c1 .
≥ 8.00
